- Read-out: E-selectin (Homo sapiens) (UniProt P16581)
- Sequence (P16581 whole entry, looked up): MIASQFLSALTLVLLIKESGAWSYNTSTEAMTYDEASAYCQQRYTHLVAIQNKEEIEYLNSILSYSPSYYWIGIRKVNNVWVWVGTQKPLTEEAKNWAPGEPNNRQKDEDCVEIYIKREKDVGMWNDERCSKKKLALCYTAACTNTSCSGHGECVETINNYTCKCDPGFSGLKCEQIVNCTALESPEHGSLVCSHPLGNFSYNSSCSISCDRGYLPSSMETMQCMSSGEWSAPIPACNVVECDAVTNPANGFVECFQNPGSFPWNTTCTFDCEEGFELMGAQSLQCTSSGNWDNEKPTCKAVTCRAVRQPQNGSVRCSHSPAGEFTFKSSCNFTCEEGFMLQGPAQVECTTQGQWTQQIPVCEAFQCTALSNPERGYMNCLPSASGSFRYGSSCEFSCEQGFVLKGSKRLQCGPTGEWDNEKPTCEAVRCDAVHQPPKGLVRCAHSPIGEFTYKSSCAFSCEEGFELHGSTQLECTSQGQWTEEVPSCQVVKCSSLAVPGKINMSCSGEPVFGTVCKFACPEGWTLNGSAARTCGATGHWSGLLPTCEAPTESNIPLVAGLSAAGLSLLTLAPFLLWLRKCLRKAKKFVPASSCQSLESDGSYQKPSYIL
- Experiment notes: BSK_SAg_Eselectin: BioMAP Diversity Plus: SAg Assay for Eselectin Biomarker Activity (AID 2283091)
- Setup conditions: primary human HUVEC with PBMC; actives raise or lower the signal
Active and inactive are the calls of the source. The calls were made as follows: active = hit-call score of the fitted dose curve at least 0.9, where 1 is the maximum; inactive = score below 0.9.
Give one outcome, nothing more. List: active, inactive

// below: answered molecules
What did this assay record as the result for CC1(C)C(=O)N(Br)C(=O)N1Br ?
inactive

# repeat for Cc1c(-c2cccnc2)c2ccccc2n1CCCCC(=O)O
inactive

Follow-up item: O=P(OC(CCl)CCl)(OC(CCl)CCl)OC(CCl)CCl
active

Next:
Which outcome did this test record for the molecule On1ccccc1=S ?
active

Also check CC(C)CCCCCCOC(=O)c1ccc(C(=O)OCCCCCCC(C)C)c(C(=O)OCCCCCCC(C)C)c1
inactive

What do you get for CCCCCCCCCCCCCCCO ?
active

// query: CCCC(=O)OCC
inactive

Please do the same for COC(=O)CC(=O)OC as well.
inactive

Subsequent entry: O=C(O)CC(O)C(=O)O (centres undefined)
inactive

Proceed to CC(C)=CCCC(C)=CC=O
inactive

What do you have for CCC(C)(C)C(=O)O[C@H]1C[C@@H](C)C=C2C=C[C@H](C)[C@H](CC[C@@H]3C[C@@H](O)CC(=O)O3)[C@H]21 ?
active

Next molecule: CC(C)c1cccc(C(C)C)c1N1C(=O)c2ccc(O)cc2C1=O
active

Follow-up entry: CC(=O)OCCC(C)C
inactive

Further, for CC/C(=C\C(=N/O)C(N)=O)C(C)[N+](=O)[O-] (centres undefined) ?
inactive

---

- Experiment notes: BSK_4H_SRB: Viability Assessment in the BioMAP Diversity Plus: 4H Assay (AID 2283027);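 also: cells exposed to compound for 24 h before staining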
- Setup conditions: primary human endothelial cells (HUVEC)
The source made the active and inactive calls. How the source made its calls: active means hit-call score of the fitted dose curve at least 0.9, where 1 is the maximum; inactive means score below 0.9.
Outcome field: choose from t = active, f = inactive

State the result this test recorded for CCCN(C1CCN(C(=O)C2CCNCC2)CC1)[C@@H]1CCc2ccc(OC)cc2C1 .
f

Input COC(=O)CC(=O)OC
f

Can you check Cn1c(=O)cc(Oc2ccc(F)cc2F)c2cnc(NCC(C)(C)O)nc21 next?
f

Let us now turn to CC(=O)OC[C@H]1O[C@@](COC(C)=O)(O[C@H]2O[C@H](COC(C)=O)[C@@H](OC(C)=O)[C@H](OC(C)=O)[C@H]2OC(C)=O)[C@@H](OC(C)=O)[C@@H]1OC(C)=O
f

Follow-up item: CCCCCCCCCCCCCCCO
t

Next up: CCOC(=O)CC(CC(=O)OCC)(OC(C)=O)C(=O)OCC
f

Same lookup for CCOC(=O)COc1ccc2c(c1)CC(NCC(O)c1cccc(Cl)c1)CC2 (stereo not given) , please.
t

Same lookup for CN(C)c1ccc(N=NS(=O)(=O)O)cc1 , please.
f

---

- Experiment notes: BSK_3C_VCAM1: BioMAP Diversity Plus: 3C Assay for Vascular cell adhesion molecule 1 (VCAM1) Biomarker Activity (AID 2282999)
- Setup conditions: BioMAP 3C HUVEC, VCAM1 ELISA, cytokine-stimulated; actives raise or lower the signal
Active and inactive are the calls of the source. Rule for the calls: active = hit-call score of the fitted dose curve at least 0.9, where 1 is the maximum; inactive = score below 0.9.
Pick one: Y = active, N = inactive

Write down the call the test reported for this molecule. Item: Cc1ccc(S(=O)(=O)O)cc1C
N

Continuing:
Just curious, what result did CC/C(=C\C(=N/O)C(N)=O)C(C)[N+](=O)[O-] (configuration not stated) get here?
Y

Can you handle CNCc1ccc(NC(=O)c2c[nH]c3c2C(=O)CCC3)cc1 next?
N

Next entry: O=C(O)c1cccc(N(Cc2cccnc2)c2ccc(OC(F)F)c(OC(F)F)c2)c1
N

Can you check COc1ccc(/C=C/S(=O)(=O)NC(=O)c2ccc(C)cc2Cl)cc1 next?
N

Try this molecule too: O=C(NS(=O)(=O)/C=C/c1ccccc1)c1ccc(F)cc1Cl
N

For Oc1ccc2c(c1)-c1ccccc1C2 then?
N

Reference source: PubChem BioAssay (EPA / NIEHS)
